Value source: the supplement of paper PMC9112550

# Tested on: Escherichia coli TOP10;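 further: peptides expressed intracellularly from a pBAD plasmid library in pooled LB shake-flask culture, induced with 0.3% L-arabinose, DNA abundance read by NGS, three biological replicates, DESeq2 with apeglm shrinkage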
# TEST DESCRIPTION: shrunken log2 fold change of peptide-encoding DNA abundance (4.5 h post-induction vs induction); higher = less antimicrobial activity (less host growth inhibition)
# STUDY CONDITIONS: time post-induction: 4.5 h; library: site-saturation at positions 5, 18, 19, 20
Overview of recorded shrunken log2 fold change for various sequences
Just the number, please.

Study these solved cases before continuing.
RRIRKRPPRLPRPRPRPYGRPRP    -0.0362
RRIRPRPPRLPRPRPRPFCSPRP    -0.186
RRIRMRPPRLPRPRPRPGPLPRP    0.532
RRIRPRPPRLPRPRPRPQSTPRP    -0.136
RRIRFRPPRLPRPRPRPCWTPRP    -0.323

Kindly consider the entry below.
GET /values?readout=shrunken log2 fold change&item= RRIRVRPPRLPRPRPRPDPYPRP
-0.1
